The values you see were collected from a melting point compilation (Tetko et al.).

# Lookup of reported melting point keyed by entry

Example results:
| MOLECULE_SMILES | melting point |
| --- | --- |
| Brc1ccc2occ(Br)c2c1 | 77 to 78 °C |
| CN1C(=O)Cc2cc(Br)ccc21 | 132 to 133 °C |

Let us move to another entry and its melting point.
Problem: Bench note: what melting point did Brc1ccccc1COc1ccccc1 show?
Result: 41 to 42 °C

---

A collection of compounds and their measured melting point

# example entries with known answers
| MOLECULE_SMILES | melting point |
| --- | --- |
| Clc1ccc(OCCCI)cc1 | 31 to 33 °C |
| Cc1cc(C)c2c(=O)n(-c3ccc(Cl)cc3)c(S)nc2n1 | 324 to 326 °C |

Problem: Field request: melting point | item: O=C=Nc1cccs1
Result: 108 to 110 °C

---

RECORDED_ENDPOINT: melting point

| MOLECULE | RECORDED_ENDPOINT | ASSAY_RESULT |
| --- | --- | --- |
| O=C(O)CN(CC(=O)O)c1ccccc1 | melting point | 156 to 160 °C |

Problem: Value lookup for melting point; key = O=C(Cl)c1ccc(N=Nc2ccccc2)cc1
Result: 93 to 97 °C

Problem: Would you kindly share the measured melting point for CC1CNC(C(C2=NCC(C)N2)C2=NCC(C)N2)=N1 (stereo not given) ?
Result: 241 to 242 °C

Problem: Form field: reported melting point of O=[N+]([O-])c1cc(Cl)ccc1Sc1ccccc1
Result: 82 to 84 °C

Problem: Quick check: melting point of CC(=O)OC[C@H]1O[C@@H](Oc2ccc(C)cc2)[C@H](OC(C)=O)[C@@H](OC(C)=O)[C@@H]1OC(C)=O ?
Result: 125 to 126 °C

Problem: State the recorded melting point for this entry: CCCCCCCCC(=O)c1ccc(/N=N/c2ccc(OCC)cc2)cc1
Result: 63 to 108 °C

Problem: Given the molecule O=C1C(=C2C=Cc3ccccc3N2)C(=O)c2ccccc21 , what is its reported melting point?
Result: 240 to 241 °C

Problem: What melting point value was documented for this molecule, O=C=Nc1ccc2c(c1)CCO2 ?
Result: 42 to 43 °C

Problem: Name the reported melting point value associated with the molecule COc1ccc2c(c1)CC2C(=O)O (stereo not given)
Result: 83 to 89 °C

Problem: Bench note: what melting point did Cc1nc(C)c(C(=O)O)s1 show?
Result: 233 to 235 °C

---

Listed next: entries and their corresponding melting point.

| MOLECULE_SMILES | ASSAY_RESULT |
| --- | --- |
| O=C(O)c1ccccc1C(=O)c1ccc(F)cc1 | 140 to 141 °C |
| CCOC(=O)c1c[nH]c2c(F)cccc2c1=O | 205 to 210 °C |

# next compound below
Problem: Field request: melting point | item: NC(=S)c1ccc(Cl)cc1
Result: 127 to 130 °C

---

Some compounds, each annotated with its measured melting point.

See these solved cases before continuing.
| MOLECULE_SMILES | melting point |
| --- | --- |
| Cc1ccc(C(=O)CCCCl)cc1C | 46 to 49 °C |
| O=C(O)C1CCOCC1 | 87 to 89 °C |
| COC(=O)c1ccc(N)c(N)c1 | 108 to 109 °C |

Turning to the following compound.
Problem: Return reported melting point; argument: Cc1nn(C(=O)OC(C)(C)C)c(C)c1I
Result: 56 to 58 °C

---

Quick reference for melting point among some molecules

| MOLECULE_SMILES | melting point |
| --- | --- |
| CCOC(=O)c1cc(=O)c2cc(I)ccc2o1 | 148 to 150 °C |
| Cc1noc(N)c1[N+](=O)[O-] | 154 to 156 °C |
| OCc1csc(N2CCOCC2)n1 | 118 to 120 °C |
| O=C1C(=Cc2ccc(Cl)cc2)SC(=S)N1CNc1ccc([N+](=O)[O-])cc1 | 216 to 217 °C |

Problem: Returns the measured melting point for the input molecule. Input: Nc1ccccc1SCCS(=O)(=O)c1ccc(Cl)cc1
Result: 135 to 137 °C

Problem: What value of melting point has been recorded for this entry: O=C1Cc2ccccc2CO1
Result: 82 to 83 °C

Problem: Give its melting point value. Item: O=C(O)CCOc1ccc(Cl)cc1
Result: 136 to 137 °C

---

RECORDED_ENDPOINT: melting point

Answered cases to consult:
| MOLECULE_SMILES | melting point |
| --- | --- |
| Cc1noc(-c2ccccc2)c1C=O | 85 to 87 °C |
| OCc1ccc(-c2cncnc2)cc1 | 127 to 130 °C |
| CCOC(=O)c1cnn(-c2ccc(N)cc2)c1C | 91 to 92 °C |

Problem: What does the data say about its melting point? Entry: O=Cc1ccc(-c2cccs2)s1
Result: 57 to 58 °C

---

// melting point lookup, one value per entry
All answers are understood in °C, so give the number only.

| MOLECULE_SMILES | melting point (°C) |
| --- | --- |
| Nc1nc(Cl)c2nc[nH]c2n1 | 300 |
| N=c1sc(C(=O)c2cccs2)nn1-c1ccncc1 | 131 |
| NS(=O)(=O)c1c(Cl)cc(Cl)cc1Cl | 180 |

Let us examine a further case.
Problem: Please look up its melting point: COc1ccc(CC#N)cc1Br
Result: 52

---

Entries and their measured melting point follow.

| MOLECULE | RECORDED_ENDPOINT | ASSAY_RESULT |
| --- | --- | --- |
| O=C1OC(=O)c2c(F)ccc(F)c21 | melting point | 217 to 221 °C |
| COc1cccc(C=C[N+](=O)[O-])c1 | melting point | 91 to 93 °C |
| CC(=O)Nc1ccc(CC#N)cc1 | melting point | 82 to 83 °C |
| C1CCC2NCCCC2C1 (stereo not given) | melting point | 37.5 to 45 °C |

Problem: # melting point lookup, item CC(=O)c1cc(Cl)c(N)c(Cl)c1
Result: 161 to 165 °C

---

Overview of recorded melting point for various molecules

Recorded melting point, per entry:
| MOLECULE | RECORDED_ENDPOINT | ASSAY_RESULT |
| --- | --- | --- |
| O=C(O)c1csc(-c2ccncc2)n1 | melting point | 304 to 307 °C |
| O=C(O)c1ccc(CN2CCS(=O)(=O)CC2)cc1 | melting point | 222 to 223 °C |
| N#Cc1ccnc(N2CCCC2)c1 | melting point | 79 to 80 °C |
| COc1cc2c(cc1OC)C(c1ccc([N+](=O)[O-])cc1)N(C(C)=O)CC2 (configuration not stated) | melting point | 183 to 185 °C |
| CCOC(=O)c1ccc(OC)c(OC)c1Cl | melting point | 50 to 52 °C |
| N#Cc1ccc(NN)c(Cl)c1 | melting point | 127 to 128 °C |

// switching to the query molecule
Problem: Given Cc1ccc(N2CCNCC2)cc1 , state its recorded melting point.
Result: 29 to 34 °C

---

RECORDED_ENDPOINT: melting point

| MOLECULE_SMILES | melting point |
| --- | --- |
| COc1ccc(-n2c(S)nnc2-c2ccc(OC(F)(F)F)cc2)cc1 | 178 to 180 °C |
| N#CN=CNc1ccccc1 | 138 to 141 °C |
| O=C(O)c1cc(F)c(Cl)cc1F | 153 to 158 °C |

Problem: What value of melting point has been recorded for this entry: O=C(Oc1c(F)c(F)c(F)c(F)c1F)c1ccc(-c2cccs2)nc1
Result: 140 to 142 °C

---

RECORDED_ENDPOINT: melting point

| MOLECULE_SMILES | ASSAY_RESULT |
| --- | --- |
| BrCc1ccc(-n2cccc2)cc1 | 86 to 91 °C |
| O=C(O)c1ccnn1-c1ccccc1 | 182 to 183 °C |
| O=C(NC(NC(=O)c1ccccc1)c1ccccc1OCc1ccccc1Cl)c1ccccc1 | 241 to 243 °C |
| COC(=O)c1cccc(CN2CCOCC2)c1 | 46 to 47 °C |
| ClCc1cc(-c2cccs2)on1 | 32 to 34 °C |
| Brc1nc(Br)c(Br)[nH]1 | 208 to 212 °C |

Now for another entry.
Problem: Given the compound O=C(O)c1ccc(Oc2ccccc2)o1 , what is its reported melting point?
Result: 126 to 127 °C

---

RECORDED_ENDPOINT: melting point

Solved cases below.
| COMPOUND | melting point |
| --- | --- |
| Nc1ccccc1C(=O)OCc1ccccc1 | 76 to 78 °C |
| CC(=O)OC1CCC2(C)C(=CCC3C2CCC2(C)C3CCC2C2(CBr)OCCO2)C1 (centres undefined) | 170 to 172 °C |
| COC(=O)CC(=O)c1cncc(Br)c1 | 88 to 93 °C |

Problem: What melting point value was documented for this compound, Cc1ccc(OCCBr)cc1 ?
Result: 37 to 38 °C
